experimental.target: human JAK1 catalytic kinase (JH1) domain (Homo sapiens (Human), UniProt P23458)
Sequence (P23458 875-1153): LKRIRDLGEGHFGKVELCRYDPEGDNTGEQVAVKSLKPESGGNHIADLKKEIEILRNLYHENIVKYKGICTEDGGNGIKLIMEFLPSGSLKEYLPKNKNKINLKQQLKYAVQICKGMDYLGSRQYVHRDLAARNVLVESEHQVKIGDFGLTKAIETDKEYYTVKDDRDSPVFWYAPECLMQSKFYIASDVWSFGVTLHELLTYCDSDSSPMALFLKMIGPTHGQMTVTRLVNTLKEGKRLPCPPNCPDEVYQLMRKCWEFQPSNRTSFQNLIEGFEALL
assay.protocol: ADP-Glo Kinase Assay, recombinant JAK1 catalytic kinase (JH1) domain
Assay type: biochemical
condition.notes: recombinant JH1 domain 4 nM, 35 μM ATP, JAK3-342 peptide, mean, read-out: JAK1 biochem IC50 (nM) Mean
value.type: log10 IC50 (log10 of the value in nM)
Heads up: the numbers are on a log10 scale; they represent IC50 in nM.

Previously resolved entries follow.
>  <molecule>
Cn1cc(-c2cc3c(N4CC5CCC(C4)N5C(=O)C4CC(F)C4)ncnn3c2)cn1 (stereo not shown)

>  <log10 IC50>
3.82

$$$$
>  <molecule>
O=C(C1CC1)N1C2CCC1CN(c1ccnc3[nH]c(-c4cnn(C(F)F)c4)cc13)C2

>  <log10 IC50>
1.70

$$$$
>  <molecule>
Cn1cc(-c2cc3c(N4CC5CCC(C4)N5C(=O)[C@H]4C[C@H]4F)ncnn3c2)cn1 (single isomer, unassigned) [Example 79]

>  <log10 IC50>
3.97

$$$$
>  <molecule>
Cn1cc(-c2cc3c(N4CC5CCC(C4)N5C(=O)C4CC4(F)F)ncnn3c2)cn1 (stereo not shown)

>  <log10 IC50>
2.90

$$$$

Value of measured log10 IC50 for the entry O=C([C@H]1C[C@@H](C(F)(F)F)C1)N1C2CCC1CN(c1ncnn3cc(-c4cnn(C(F)F)c4)cc13)C2 : 2.89

get_value(item= COc1cc(-c2cc3c(N4CC5CCC(C4)N5C(=O)[C@@H]4C[C@H]4F)c(F)cnc3[nH]2)ccn1 , readout=log10 IC50) returns 1.59

Measured log10 IC50 of CC1(C(=O)N2C3CCC2CN(c2ncnn4cc(-c5cnn(C(F)F)c5)cc24)C3)CCC1 : 3.81
